# EC50 per record follows
Molecular target: RARβ (Homo sapiens, UniProt P10826)
Sequence (P10826 1-455): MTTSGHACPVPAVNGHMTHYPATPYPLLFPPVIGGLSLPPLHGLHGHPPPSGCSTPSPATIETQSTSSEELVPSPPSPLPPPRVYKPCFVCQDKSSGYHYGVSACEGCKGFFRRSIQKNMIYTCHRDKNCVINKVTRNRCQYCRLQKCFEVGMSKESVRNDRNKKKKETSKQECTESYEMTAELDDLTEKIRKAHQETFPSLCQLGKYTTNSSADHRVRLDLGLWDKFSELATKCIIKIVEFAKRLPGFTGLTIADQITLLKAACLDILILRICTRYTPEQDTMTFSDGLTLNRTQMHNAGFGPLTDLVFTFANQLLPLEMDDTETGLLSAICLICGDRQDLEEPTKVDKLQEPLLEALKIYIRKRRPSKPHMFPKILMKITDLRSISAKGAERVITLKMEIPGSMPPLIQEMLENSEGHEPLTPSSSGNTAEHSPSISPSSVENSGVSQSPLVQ
Assay: Co-transfection (cis-trans) assay in CV-1 cells, RARβ
Conditions: CV-1 cells, luciferase reporter, 36 h, read-out: Potency

>  <smiles>
CC(/C=C/C1(c2cc3c(cc2C)C(C)(C)CCC3(C)C)CC1)=C\C(=O)O

>  <EC50>
> 10 µM

$$$$
>  <smiles>
Cc1cc2c(cc1C(=O)c1ccc(C(=O)Nc3ccc(O)cc3)cc1)C(C)(C)CCC2(C)C

>  <EC50>
> 10 µM

$$$$

Now consider a different molecule.
[Q] Requested read-out: EC50. Entry: C=C(c1ccc(C(=O)O)cn1)c1cc2c(cc1C)C(C)(C)CCC2(C)C
[A] > 10 µM

* * *

Molecular target: RXRγ (Mus musculus, UniProt P28705)
Construct: expressed in transfected cells; host or cells: CV-1 (monkey kidney)
Sequence (P28705 1-463): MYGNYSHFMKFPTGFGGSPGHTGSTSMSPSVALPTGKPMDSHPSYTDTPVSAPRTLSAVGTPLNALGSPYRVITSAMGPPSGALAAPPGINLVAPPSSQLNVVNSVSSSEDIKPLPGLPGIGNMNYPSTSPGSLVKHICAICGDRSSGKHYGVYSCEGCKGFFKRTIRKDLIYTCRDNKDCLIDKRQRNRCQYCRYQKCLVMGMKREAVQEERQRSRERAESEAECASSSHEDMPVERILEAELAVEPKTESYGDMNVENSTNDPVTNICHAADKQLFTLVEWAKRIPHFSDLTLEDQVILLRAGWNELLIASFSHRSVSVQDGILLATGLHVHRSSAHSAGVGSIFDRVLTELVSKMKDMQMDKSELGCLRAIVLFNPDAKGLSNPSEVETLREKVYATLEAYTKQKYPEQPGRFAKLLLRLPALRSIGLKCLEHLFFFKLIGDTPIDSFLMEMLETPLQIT
Test: Co-transfection (cis-trans) assay in CV-1 cells, RXRγ
Assay type: cell-based
Details: CV-1; RXRγ; maximal response relative to all-trans-retinoic acid at 10^−5 M; read-out: Efficacy
recorded-endpoint: Emax at 10 µM

>  <compound>
CCCC(=C/C=C/C(C)=C/C(=O)O)/C=C/C1=C(C)CCCC1(C)C

>  <Emax at 10 µM>
85%

$$$$
>  <compound>
Cc1cc2c(cc1C(=O)c1ccc(C(=O)Nc3ccc(O)cc3)cc1)C(C)(C)CCC2(C)C

>  <Emax at 10 µM>
128%

$$$$
>  <compound>
C=C(c1ccc(C(=O)Nc2ccc(O)cc2)cc1)c1cc2c(cc1C)C(C)(C)CCC2(C)C

>  <Emax at 10 µM>
163%

$$$$
>  <compound>
C/C(=C\c1ccc(C(=O)O)cc1)c1ccc2c(c1)C(C)(C)CCC2(C)C [TTNPB, reference compound]

>  <Emax at 10 µM>
< 5%

$$$$

[Q] Requested read-out: Emax at 10 µM. Entry: CC(/C=C/C=C(\c1ccc2c(c1)C(C)(C)CCC2(C)C)C(C)C)=C\C(=O)O
[A] 97%
